src = patent US20210059590A1

Assay: Plasma free fraction (fP) of the PET tracer
Type: in vitro ADME, human
Details: human, plasma, Medication Naïve MDD patients, n=32; read-out: Plasma free fraction (fp)
testReadout: fraction unbound
In your answer, state the number alone without any accompanying words.

Record COc1ccccc1N1CCN(CCN(C(=O)C2CCCCC2)c2ccccn2)CC1 [[^11C]WAY-100635] . Reported fraction unbound: 0.06

* * *

Assay: Plasma free fraction (fP) of the PET tracer
Type: in vitro ADME, human
Conditions: human, plasma, Medication Exposed MDD patients, n=66, off antidepressants at least two weeks; read-out: Plasma free fraction (fp)
From the text: Arterial plasma radioactivity, metabolites, and plasma free fraction (fP) were collected and assayed as previously described (Parsey et al., 2006; Parsey et al., 2000). Unmetabolized parent fraction levels were fit with a Hill function (Wu et al., 2007). The input function was corrected for unmetabolized tracer by multiplying the total plasma counts with the interpolated parent fraction. […]
testReadout: fraction unbound
# answer = number (no unit)

# fraction unbound of COc1ccccc1N1CCN(CCN(C(=O)C2CCCCC2)c2ccccn2)CC1 [[^11C]WAY-100635] = 0.07
